# targetOrSystem: Cathepsin D (Cat D) (Homo sapiens (Human), UniProt P07339)
# Sequence (P07339 65-412, species assumed): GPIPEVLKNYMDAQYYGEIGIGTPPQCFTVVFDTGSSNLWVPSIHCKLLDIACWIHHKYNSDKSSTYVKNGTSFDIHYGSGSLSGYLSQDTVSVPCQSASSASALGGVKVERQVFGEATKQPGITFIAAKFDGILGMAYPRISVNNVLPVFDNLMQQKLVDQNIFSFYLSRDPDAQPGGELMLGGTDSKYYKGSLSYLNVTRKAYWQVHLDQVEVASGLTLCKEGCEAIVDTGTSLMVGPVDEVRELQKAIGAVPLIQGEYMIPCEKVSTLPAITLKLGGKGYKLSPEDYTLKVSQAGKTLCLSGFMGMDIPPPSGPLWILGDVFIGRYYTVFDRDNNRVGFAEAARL
# testName: In vitro enzymatic Cathepsin D (Cat D) FRET assay
# Assay type: biochemical
# conditionLabel: read-out: CatD IC50
readout: pIC50
Scale: negative log10 of molar concentration, which is what pIC50 denotes.

compound	pIC50
NC1=N[C@](CF)(c2cc(NC(=O)c3nn(C(F)F)cc3Cl)ccc2F)[C@H]2C[C@H]2O1	3.02
Cc1cc(C#N)cnc1C(=O)Nc1cc(F)c(Cl)c([C@]2(CF)N=C(N)O[C@H]3C[C@H]32)c1 (racemic) [Example 137]	3.27
NC1=N[C@@](c2cc(NC(=O)c3ccc(C#CC4CC4)cn3)ccc2F)(C(F)F)[C@H]2C[C@H]2O1	3.40
COCc1cc(Cl)cnc1C(=O)Nc1ccc(F)c([C@@]2(C(F)F)N=C(N)O[C@@H]3C[C@@H]32)c1	3.13

In: I am curious: what pIC50 value has been reported for `Cn1ccc(C(=O)Nc2ccc(F)c([C@@]3(C(F)F)N=C(N)O[C@@H]4C[C@@H]43)c2)cc1=O` ?
Out: 2.80

In: Field entry: `NC1=N[C@](CF)(c2cc(Nc3nccc4cc(Cl)cnc34)cc(F)c2F)[C@@H]2C[C@@H]2O1`
Out: 2.54

====

# targetOrSystem: BACE (Homo sapiens (Human))
# Sequence (P56817 46-501, species assumed): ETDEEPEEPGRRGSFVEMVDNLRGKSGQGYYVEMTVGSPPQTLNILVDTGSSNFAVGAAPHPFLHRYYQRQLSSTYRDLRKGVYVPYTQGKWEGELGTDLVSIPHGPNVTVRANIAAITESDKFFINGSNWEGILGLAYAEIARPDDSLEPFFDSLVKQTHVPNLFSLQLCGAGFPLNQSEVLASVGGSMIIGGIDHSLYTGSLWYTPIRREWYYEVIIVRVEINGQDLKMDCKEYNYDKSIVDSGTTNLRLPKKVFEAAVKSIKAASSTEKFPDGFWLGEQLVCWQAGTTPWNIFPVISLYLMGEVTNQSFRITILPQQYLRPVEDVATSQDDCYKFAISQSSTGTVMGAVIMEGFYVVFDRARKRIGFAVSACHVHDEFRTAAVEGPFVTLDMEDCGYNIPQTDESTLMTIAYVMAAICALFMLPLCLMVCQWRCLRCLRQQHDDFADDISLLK
# testName: In vitro BACE cell-based assay (Aβ40 in conditioned medium, sandwich ELISA)
Mark each entry rule met if its IC50 sits below 1 µM, and rule not met for all others.

compound	classLabel
NC1=N[C@@](c2cc(NC(=O)c3cnc(OCC4CCOC4)cn3)ccc2F)(C(F)F)[C@H]2C[C@H]2O1 (mixture of isomers)	rule met
NC1=N[C@@](c2cc(NCC3CCC3)ccc2F)(C(F)F)[C@H]2C[C@H]2O1	rule not met
COc1cnc(C(=O)Nc2ccc(Cl)c([C@@]3(CF)N=C(N)O[C@@H]4C[C@@H]43)c2)c(C)n1	rule met
COc1cnc(C(=O)Nc2ccc(F)c([C@@]3(C(F)F)N=C(N)O[C@@H]4C[C@@H]43)c2)cn1	rule met
N#Cc1cnc(C(=O)Nc2ccc(F)c([C@]3(CF)N=C(N)O[C@H]4C[C@H]43)c2)c(Cl)c1 (racemic)	rule met

In: I'd appreciate it if you could check whether `COc1cnc(C(=O)Nc2ccc(Cl)c([C@@]3(C(F)F)N=C(N)O[C@@H]4C[C@@H]43)c2)cn1` has IC50 smaller than 1 µM.
Out: rule met

In: Same lookup for NC1=N[C@](c2cccc(NC(=O)c3ccc(Cl)cn3)c2)(C(F)(F)F)[C@@H]2C[C@@H]2O1 (racemic) , please.
Out: rule not met

====

// values below are reported pIC50
# targetOrSystem: Cathepsin D (Cat D) (Homo sapiens (Human))
# testName: In vitro enzymatic Cathepsin D (Cat D) FRET assay
# Format: biochemical
# conditionLabel: read-out: CatD IC50
pIC50: −log10 of the molar value.

These recorded examples may help you get a feel for the data.
compound	targetOrSystem	pIC50
NC1=N[C@@](c2cc(NC(=O)c3ccc(OCF)cn3)ccc2F)(C(F)F)[C@H]2C[C@H]2O1	Cathepsin D (Cat D) (Homo sapiens (Human))	< 5.78
COc1cc(C#N)cnc1C(=O)Nc1cc(Cl)c(F)c([C@@]2(CF)N=C(N)O[C@@H]3C[C@@H]32)c1	Cathepsin D (Cat D) (Homo sapiens (Human))	3.05
COC[C@]1(c2cc(NC(=O)c3cnc(OC)cn3)ccc2F)N=C(N)O[C@@H]2C[C@@H]21	Cathepsin D (Cat D) (Homo sapiens (Human))	< 3.40

Turning now to a further record.
In: What pIC50 value was documented for this compound, N#Cc1ccc(C(=O)Nc2cc(F)c(F)c([C@@]3(C(F)F)N=C(N)O[C@@H]4C[C@@H]43)c2)nc1 [Example 113] ?
Out: < 3.21

Cited source: patent US9085576B2
